Attribution: the supplement of paper PMC9170038

# Tested on: MS2 coat protein
# TEST_METHOD_NOTES: apparent KD of MS2 coat protein; higher = weaker reporter binding
# ASSAY_CONTEXT: Eterna round: R107; input ligand: theophylline 2 mM
Listed below: apparent KD of MS2 coat protein values for each entry.
Please respond with the number in nM and leave the unit unwritten.

Fill in the blank: the reported apparent KD of MS2 coat protein of GCACAAGAUGGAAGGAGCGCUGGUAUAAGUCACAUGAGGAUCACCCAUGUGCUCCUUGCCGAGCAGGUAGGUCGCCAUCUUGUGC [SSAB NP+V+V2 #5] is ____.
66.9

Fill in the blank: the reported apparent KD of MS2 coat protein of CACGCACGAUCGGCCGCCACUCAUGUAGCUUACAUGAGGAUCACCCAUGUAUUUUCUUUCUUAUAGAGGACCGGGAUCGUGCGUG [#04 Same State - Tryptophan B] is ____.
24.5

Fill in the blank: the reported apparent KD of MS2 coat protein of AAAAUAAAAGGUGCAAAAUCCUAAUGUGAAGGAGCGCACGAAAGUGCAGGUAGGUCGCACAUGAGGAUCACCCAUGUAGCACCAA [ArgEX 4 #SwitchBubble] is ____.
211

---

# System: MS2 coat protein
# TEST_METHOD_NOTES: apparent KD of MS2 coat protein; designed switch direction (-1 OFF switch, 1 ON switch): -1; higher = weaker reporter binding
# ASSAY_CONTEXT: Eterna round: R95; input ligand: microRNA oligo, concentration not stated
Listed below: apparent KD of MS2 coat protein values for each entry.
Please respond with the number in nM and leave the unit unwritten.

Example entries and their recorded answers appear below.
{"SEQ": "GGAUCGAGUGUGAGGAUAUGCUGGUCCUAAGAUCAGCAGAAGGCACAUGAGGAUCACCCAUGUGAAAACGGUCC [Mat - Exclusion 4 - JL Mod - D71] (puzzle: Brourd's mod of Exclusion 4)", "MEASURED_NUMBER": 23.5}
{"SEQ": "AAUCCACAUGAGGAUCACCCAUGUCAGGAUAUGGUGACGCGGGUUUCGGUGCGUGUUGCCAGAAGGGACGGCUG (puzzle: Exclusion 1)", "MEASURED_NUMBER": 23.8}
{"SEQ": "UUUGUCUGUGUGAGGAUAUACUUGUUUGGGUUUUUGUAGAAGGCACAUGAGGAUCACCCAUGUAUUUUGUCGUG [JR_BME4_Sub018] (puzzle: Brourd's mod of Exclusion 4)", "MEASURED_NUMBER": 36.7}
{"SEQ": "GAGAUGUGAGGAUAUCUAGACCGCGGAAGAGCCGCAGUCCGAGAGAAGGCACAUGAGGAUCACCCAUGUGAUGA [Teorgeor] (puzzle: Exclusion 4)", "MEASURED_NUMBER": 36}

Fill in the blank: the reported apparent KD of MS2 coat protein of UUUUAGGGAGGAUAUACAUUUUUUUUAUUAUCCUCAUUAAUACAUGAGGAUCACCCAUGUAGAAGGCCCAUUUU [Mat - Exclusion 2 - Mod of Hog - D84] (puzzle: Exclusion 2) is ____.
47.9

---

Listed below: apparent KD of K4 kissing-loop reporter values for each entry.
# Tested on: K4 kissing-loop RNA reporter
# TEST_METHOD_NOTES: apparent KD of K4 kissing-loop reporter; higher = weaker reporter binding
# ASSAY_CONTEXT: Eterna round: R107; input ligand: arginine 13.2 mM
Please respond with the number in nM and leave the unit unwritten.

Example entries and their recorded answers appear below.
{"SEQ": "UUCGGAUAAGUCCUUCCGAAGAAGCCGGAAGGAGCGACUCAAUAGUCAGGUAGGUCGCCGGCAAGCGUAGUGAUGUUAUGCUCAC [Arg A SS t6]", "U": "nM", "MEASURED_NUMBER": 598}
{"SEQ": "GGAUAGGACAAAGGAUAUGGGCUAGGCAAGAAUAACUUGUCUAGCAAAUCCAUGAGGAGUGAUGUUCCAGAAGGUUGUCCUAUCG [FmnBX 1 A11+U75]", "U": "nM", "MEASURED_NUMBER": 116}
{"SEQ": "CCAUCGCUAUUCGAUACCAGUCAUCAAAUCUUUGGUUUGAUAAAGGAGUGAUGUUCCCAAGACCCUUGGCAGCGAAUAGUGAUGG [Theophylline B K4 10]", "U": "nM", "MEASURED_NUMBER": 212}
{"SEQ": "CGUGAUGUAUGGCGGUUUGUCACUUAGGAUCAGGAUAUAUAAACAAAUAGAAGGGAUGGCGGAGUGAUGUUCCGCCGGCCGCCAU [FMN A Exl V8]", "U": "nM", "MEASURED_NUMBER": 128}
{"SEQ": "UUAGAAGUAUACUUCAAGAGGUAUGCUGAUACCAGAGUCAAUUGACUCCCUUGGCAGCGGAUCGAGUGAUGUUCGUAACCUCAUU [AK3.1 SS Theophylline A]", "U": "nM", "MEASURED_NUMBER": 238}

Note: attention shifts to another entry.
Fill in the blank: the reported apparent KD of K4 kissing-loop reporter of `AAAAUAAGCCAGUGAUGUUGGUAUACAGAUACCAGCGACGAAAGUCGCCCUUGGCAGCUGUGGACGUACAAAAUAAGUACGUCCU` is ____.
278

---

Listed below: apparent KD of K4 kissing-loop reporter values for each entry.
# System: K4 kissing-loop RNA reporter;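 note: bound reporter read as fluorescence of individual clusters on recovered sequencing chips by microscopy, with normalized cluster intensities fitted with a binding model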
# TEST_METHOD_NOTES: apparent KD of K4 kissing-loop reporter; higher = weaker reporter binding
# ASSAY_CONTEXT: Eterna round: R107; input ligand: arginine 13.2 mM
Please respond with the number in nM and leave the unit unwritten.

Example entries and their recorded answers appear below.
{"SEQ": "UGGAGGAGUGAUGUUCCCGAAACAUGAGAUACCAGCGUCACAGUCCGCCCUUGGCAGCUCGGUCCAAUUUGCCUCGCGGGUAAUG [theeternabot_sameState_KL_Theo_A_23]", "MEASURED_NUMBER": 251}
{"SEQ": "AUUAAUUUCAGAGGAUAUCGUGAUUUUAUUUAAUUUAUUCAUUUGUGCAGUGAUGUUGCUAAUAUUCGAGAAGGCUGAUUUAUAA [whbob_Ex_FMNB__2th224]", "MEASURED_NUMBER": 109}

Fill in the blank: the reported apparent KD of K4 kissing-loop reporter of GGUCGCCUGAGCAGUGAUGUUGCAAGGGAAGGAGCGCGUUUUUUCGCAGGUAGGUCGCCCAAAUAAUAAGUUAAACUAGGCGACC [4.)] is ____.
144

Fill in the blank: the reported apparent KD of K4 kissing-loop reporter of UGUACCGAGUCAGGAUAUGGCGUCGAAAGACGAAUUCUAGUGAUGUUAGGGAUCUGCGAAAGCAGUUCAGAAGGGACUUGGUACU [FmnBS 26 U36+U67] is ____.
288

Fill in the blank: the reported apparent KD of K4 kissing-loop reporter of AGAAACUUGUAUGUCGAGUGUGCGCGCGAUACCAGCCAAAUGGAUGGCCCUUGGCAGCGCUGCGAGUGAUGUUCGCCCGCUUGAC [#18 K4 Theophylline A Exclusion] is ____.
244

Fill in the blank: the reported apparent KD of K4 kissing-loop reporter of AAAUUCUUUUUUUUAUUUAACUUUUCAGAAGGAGCGUGGUAGUACACAGGUAGGUCGCUGAAUUUUGGGCUAGUGAUGUUAGUUA [whbob_SS_Arginine_A_sa113] is ____.
217

---

# System: MS2 coat protein
# TEST_METHOD_NOTES: apparent KD of MS2 coat protein; higher = weaker reporter binding
# ASSAY_CONTEXT: Eterna round: R107; input ligand: tryptophan 2.4 mM
Please use the following apparent KD of MS2 coat protein ranges when assigning a class: bin 0 = under 0.02 µM, bin 1 = from 0.02 µM up to 0.04 µM, bin 2 = 0.04 µM and over

Dear colleague, I would appreciate it if you could identify the bin for AUCCAUAGCCGAAGGAGCGCAGUAGGAUGACAUGAGGAUCACCCAUGUGUGUGAUGUGGAUUGCAGGUAGGUCGCGGAGUGGGUU [Exclusion - Arginine B (Freestyle 7)] and reply at your convenience.
bin 2

Dear colleague, I would appreciate it if you could identify the bin for UUAAUCAAUAUAGAAAACUAUAUUGCAGAAGGAGCGUGAUAAAACACAGGUAGGUCGCUGAAGGGAACAUGAGGAUCACCCAUGU [AstrosSSArgA#5] and reply at your convenience.
bin 1

Dear colleague, I would appreciate it if you could identify the bin for UACAUGAGGAUCACCCAUGUCUGAACUGAAGGAGCGCUAAAUAAGGCAGGUAGGUCGCGGAAUUUUGUGUGCAUAUGCAUAUGGG [9.L] and reply at your convenience.
bin 1

Dear colleague, I would appreciate it if you could identify the bin for ACGUCCGGAUUGAUCGUGGGCAUGGUCGAUACCAGUAUUUUAAUCUACCCUUGGCAGCGACAUGAGGAUCACCCAUGUGCGAUGA [XTheo A #19] and reply at your convenience.
bin 0

Dear colleague, I would appreciate it if you could identify the bin for AAGUGGCACGGAAGGAGCGAGUUUACCUAGAUAACAUGAGGAUCACCCAUGUAUAAUGGGACUCAGGUAGGUCGCCGCUGUCACU [#30 Same State - Arginine B] and reply at your convenience.
bin 2
